Source: patent US20140088069A1

System: MRSA
experiment-notes: Analogues in combination with cefuroxime against MRSA (FIC index)
Format: cell-based, Staphylococcus aureus
condition-info: novel analogue in combination with cefuroxime; MRSA (Table 6)
quantity-name: FIC index

INSERT INTO measurements (molecule, quantity_name, result) VALUES
  ('O=C(O)C(c1ccccc1Cl)N1CCc2ccccc2C1 (stereo not shown) [Compound 4-novel]', 'FIC index', '≦2'),
  ('Oc1ccc2c(c1)CN(Cc1ccccc1Cl)CC2 [Compound 2-novel]', 'FIC index', '≦2'),
  ('Clc1ccc2c(c1)CCN(Cc1ccccc1Cl)C2 [Compound 1-novel]', 'FIC index', '≦2');

====

System: CA-MRSA USA300
experiment-notes: Checkerboard (FIC) analysis against CA-MRSA USA300
Format: cell-based, Staphylococcus aureus
condition-info: antibiotic in combination with ticlopidine; CA-MRSA USA 300; FIC (β-lactam)+FIC (ticlopidine)
quantity-name: FIC index

Use the examples below as a reference point.
INSERT INTO measurements (molecule, result) VALUES
  ('CCN1CCN(C(=O)N[C@@H](C(=O)N[C@@H]2C(=O)N3[C@@H]2SC(C)(C)[C@@H]3C(=O)O)c2ccccc2)C(=O)C1=O [Piperacillin]', '≦0.5'),
  ('C[C@@H](O)[C@H]1C(=O)N2C(C(=O)O)=C(S[C@@H]3CN[C@H](C(=O)N(C)C)C3)[C@H](C)[C@H]12 [Meropenem]', '≦0.75'),
  ('Cc1onc(-c2ccccc2Cl)c1C(=O)N[C@@H]1C(=O)N2[C@@H]1SC(C)(C)[C@@H]2C(=O)O [Cloxacillin]', '≦0.5'),
  ('CC(C)(O/N=C(\C(=O)N[C@@H]1C(=O)N2C(C(=O)[O-])=C(C[n+]3ccccc3)CS[C@H]12)c1csc(N)n1)C(=O)O [Ceftazidime]', '≦2'),
  ('CC1=C(C(=O)O)N2C(=O)[C@@H](NC(=O)[C@H](N)C3=CCC=CC3)[C@H]2SC1 [Cephradine]', '≦2'),
  ('CC1=C(C(=O)O)N2C(=O)[C@@H](NC(=O)[C@H](N)c3ccc(O)cc3)[C@H]2SC1 [Cefadroxil]', '≦2');

**Query** Enter reported FIC index observed with CA-MRSA USA300 for CO/N=C(\C(=O)N[C@@H]1C(=O)N2C(C(=O)O)=C(COC(N)=O)CS[C@H]12)c1ccco1 [Cefuroxime]
**Result** ≦0.13

====

Tested on: CA-MRSA USA300
experiment-notes: Checkerboard (FIC) analysis against CA-MRSA USA300
Assay type: cell-based, Staphylococcus aureus
condition-info: antibiotic in combination with ticlopidine; CA-MRSA USA 300; FIC (β-lactam)+FIC (ticlopidine)
quantity-name: FIC index

Recorded FIC index, per entry:
INSERT INTO results (line_notation, quantity_name, result) VALUES
  ('CCOc1ccc2ccccc2c1C(=O)N[C@@H]1C(=O)N2[C@@H]1SC(C)(C)[C@@H]2C(=O)O', 'FIC index', '≦0.5'),
  ('CO/N=C(\C(=O)N[C@@H]1C(=O)N2C(C(=O)O)=CCS[C@H]12)c1csc(N)n1', 'FIC index', '≦0.5'),
  ('NC(=O)c1cc[n+](CC2=C(C(=O)O)N3C(=O)[C@@H](NC(=O)[C@@H](c4ccccc4)S(=O)(=O)[O-])[C@H]3SC2)cc1', 'FIC index', '≦2'),
  ('CC1=C(C(=O)O)N2C(=O)[C@@H](NC(=O)[C@H](N)c3ccccc3)[C@H]2SC1', 'FIC index', '≦0.75'),
  ('Cc1onc(-c2ccccc2)c1C(=O)N[C@@H]1C(=O)N2[C@@H]1SC(C)(C)[C@@H]2C(=O)O', 'FIC index', '≦0.5'),
  ('CO/N=C(\C(=O)N[C@@H]1C(=O)N2C(C(=O)O)=C(COC(C)=O)CS[C@H]12)c1csc(N)n1', 'FIC index', '≦0.5'),
  ('COc1cccc(OC)c1C(=O)N[C@@H]1C(=O)N2[C@@H]1SC(C)(C)[C@@H]2C(=O)O', 'FIC index', '≦0.63'),
  ('N[C@@H](C(=O)N[C@@H]1C(=O)N2C(C(=O)O)=C(Cl)CS[C@H]12)c1ccccc1', 'FIC index', '≦0.5');

**Query** If you can, please state the reported FIC index value of CC1(C)S[C@@H]2[C@H](NC(=O)Cc3ccccc3)C(=O)N2[C@H]1C(=O)O .
**Result** ≦0.5

**Query** Fill in: FIC index of CO[C@@]1(NC(=O)Cc2cccs2)C(=O)N2C(C(=O)O)=C(COC(N)=O)CS[C@@H]21 is ___
**Result** ≦0.5

**Query** Fill in the blank: the reported FIC index of Cn1nnnc1SCC1=C(C(=O)O)N2C(=O)[C@@H](NC(=O)[C@H](O)c3ccccc3)[C@H]2SC1 is ____.
**Result** ≦0.63

**Query** Query (compound): CC1(C)S[C@@H]2[C@H](NC(=O)[C@H](N)c3ccccc3)C(=O)N2[C@H]1C(=O)O ; field requested: FIC index
**Result** ≦0.5

**Query** Looking for the measured FIC index of CC(=O)OCC1=C(C(=O)O)N2C(=O)[C@@H](NC(=O)Cc3cccs3)[C@H]2SC1 , can you help?
**Result** ≦0.5
